Data credit: ChEMBL document CHEMBL3817754

Each entry below lists one item and its recorded Ratio IC50 value.
ASSAY COMMENT: Selectivity index, ratio of IC50 for equine serum butyrylcholinesterase to IC50 for electric eel acetylcholinesterase
OUTCOME MEASURE: Ratio IC50

>>> recorded_number("O=C(/C=C/c1ccc([N+](=O)[O-])cc1)NCCC1CCN(Cc2ccccc2)CC1")
6.98
>>> recorded_number("O=C(/C=C/c1ccc(O)c(O)c1)NC1CCN(Cc2ccccc2)CC1")
0.241
>>> recorded_number("COc1cc(/C=C/C(=O)NCCC2CCN(Cc3ccccc3)CC2)ccc1OC(C)=O")
2.31
>>> recorded_number("COc1ccc(/C=C/C(=O)NCCC2CCN(Cc3ccccc3)CC2)cc1O")
2.33
>>> recorded_number("O=C(/C=C/c1ccc(F)cc1)NCCC1CCN(Cc2ccccc2)CC1")
2.43
>>> recorded_number("COc1cc(/C=C/C(=O)NCCC2CCN(Cc3ccccc3)CC2)cc(OC)c1OC")
3.2
>>> recorded_number("COc1cc(/C=C/C(=O)NC2CCN(Cc3ccccc3)CC2)cc(OC)c1OC")
0.038
>>> recorded_number("COc1cc(/C=C/C(=O)O)ccc1O [FERULATE]")
4.95
>>> recorded_number("O=C(/C=C/c1ccc(Cl)cc1)NC1CCN(Cc2ccccc2)CC1")
0.759
>>> recorded_number("COc1cc(/C=C/C(=O)NCCC2CCN(Cc3ccccc3)CC2)cc(OC)c1O")
2.2
>>> recorded_number("COc1cc(/C=C/C(=O)CC(=O)NC2CCN(Cc3ccccc3)CC2)ccc1O")
1.99
>>> recorded_number("COc1cc(/C=C/C(=O)NC2CCN(Cc3ccccc3)CC2)ccc1OC(C)=O")
0.786
>>> recorded_number("COc1cc(CCC(=O)NCCC2CCN(Cc3ccccc3)CC2)ccc1O")
0.588
>>> recorded_number("COc1cc(/C=C/C(=O)NC2CCN(Cc3ccccc3)CC2)cc(OC)c1O")
0.26
>>> recorded_number("COc1cc(/C=C/C(=O)NCCC2CCN(Cc3ccccc3)CC2)ccc1O")
1.87
>>> recorded_number("O=C(/C=C/c1ccc(O)cc1)NCCC1CCN(Cc2ccccc2)CC1")
1.42
>>> recorded_number("COc1cc(/C=C/C(=O)CC(=O)/C=C/c2ccc(O)c(OC)c2)ccc1O")
4.43
>>> recorded_number("COc1cccc(/C=C/C(=O)NCCC2CCN(Cc3ccccc3)CC2)c1")
0.642
>>> recorded_number("O=C(/C=C/c1ccccc1O)NCCC1CCN(Cc2ccccc2)CC1")
0.491
>>> recorded_number("COc1ccc(/C=C/C(=O)NCCC2CCN(Cc3ccccc3)CC2)cc1OC")
5.43
>>> recorded_number("O=C(/C=C/c1ccc(Cl)cc1)NCCC1CCN(Cc2ccccc2)CC1")
5.32
>>> recorded_number("O=C(/C=C/c1ccc(O)cc1)CC(=O)NC1CCN(Cc2ccccc2)CC1")
0.053

###

SUBJECT OF TEST: Cholinesterase (Homo sapiens)
Sequence (P06276 whole entry): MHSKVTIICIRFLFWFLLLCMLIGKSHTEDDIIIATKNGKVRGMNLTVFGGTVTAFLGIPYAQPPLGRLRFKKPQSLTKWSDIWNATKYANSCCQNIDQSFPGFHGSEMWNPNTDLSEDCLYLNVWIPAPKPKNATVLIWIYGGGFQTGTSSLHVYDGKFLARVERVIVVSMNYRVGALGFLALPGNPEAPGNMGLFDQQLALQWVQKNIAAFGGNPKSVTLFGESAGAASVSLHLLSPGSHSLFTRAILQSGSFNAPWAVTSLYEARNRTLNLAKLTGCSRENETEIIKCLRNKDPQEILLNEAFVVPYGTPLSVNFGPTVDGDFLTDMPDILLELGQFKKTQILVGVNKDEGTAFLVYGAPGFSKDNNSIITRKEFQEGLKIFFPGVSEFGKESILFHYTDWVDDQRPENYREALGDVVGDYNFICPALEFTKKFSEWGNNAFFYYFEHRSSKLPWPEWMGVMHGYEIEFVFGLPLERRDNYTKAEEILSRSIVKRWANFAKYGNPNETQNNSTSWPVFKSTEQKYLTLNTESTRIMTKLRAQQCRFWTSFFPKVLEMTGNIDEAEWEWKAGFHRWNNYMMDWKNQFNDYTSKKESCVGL
ASSAY COMMENT: Inhibition of human serum butyrylcholinesterase preincubated for 5 mins followed by addition of S-butyrylthiocholine iodide as substrate measured after 60 to 120 mins by Ellmans method
OUTCOME MEASURE: IC50 (µM)

>>> recorded_number("COc1ccc(/C=C/C(=O)NCCC2CCN(Cc3ccccc3)CC2)cc1O")
3.24
>>> recorded_number("O=C(/C=C/c1ccccc1)NCCC1CCN(Cc2ccccc2)CC1")
1.41
>>> recorded_number("O=C(/C=C/c1ccc(O)c(O)c1)NCCC1CCN(Cc2ccccc2)CC1")
145
>>> recorded_number("COc1ccc(/C=C/C(=O)NCCC2CCN(Cc3ccccc3)CC2)cc1OC")
2.54
>>> recorded_number("COc1cc(/C=C/C(=O)NCCC2CCN(Cc3ccccc3)CC2)cc(OC)c1O")
1.22
